These entries and their values trace back to patent US7550456B2.

target: human hNET (Homo sapiens); construct: expressed in transfected cells; host or cells: MDCK-Net6 (MDCK cells, stably transfected); assay: Norepinephrine (NE) uptake assay in MDCK-Net6 cells; assay type: cell-based; conditions: 1 μM test compound, [3H]NE uptake, read-out: % Inhibition @ 1 μM (hNET)
Where a name gives a salt, the structure may show the parent alone.
Consider the following compounds; for each one, report its inhibition at 1 µM.
Respond with the bare value in %.

What does the record list as inhibition at 1 µM for OC1(C(CN2CCNCC2)c2ccccc2-c2ccc(Cl)c(Cl)c2)CCCCC1 (centres unmarked) [Example 148, dihydrochloride] ? 32

Any idea what inhibition at 1 µM was measured for O=[N+]([O-])c1cccc(-c2ccc(C(CN3CCNCC3)C3(O)CCCCC3)cc2)c1 (centres unmarked) [Example 169, dihydrochloride] ? 69

Can you look up the measured inhibition at 1 µM of OC1(C(CN2CCNCC2)c2ccccc2-c2ccc3c(c2)OCO3)CCCCC1 (centres unmarked) [Example 151, dihydrochloride] for me? 12

inhibition at 1 µM for OC1(C(CN2CCNCC2)c2ccc(OCc3ccccc3C(F)(F)F)c(Cl)c2)CCCCC1 (centres unmarked) [Example 421, dihydrochloride] ? 59

Which inhibition at 1 µM reading was recorded for the compound OC1(C(CN2CCNCC2)c2ccc(OCc3ccccc3C(F)(F)F)cc2)CCCCC1 (centres unmarked) [Example 440, dihydrochloride] ? 28

* * *

biological target: human hNET (Homo sapiens, UniProt P23975); construct: expressed in transfected cells; host or cells: MDCK-Net6 (MDCK cells, stably transfected); assay: Norepinephrine (NE) uptake assay in MDCK-Net6 cells; assay type: cell-based; settings: 1 μM test compound, [3H]NE uptake, read-out: % Inhibition @ 1 μM (hNET)
Sequence (P23975 whole entry): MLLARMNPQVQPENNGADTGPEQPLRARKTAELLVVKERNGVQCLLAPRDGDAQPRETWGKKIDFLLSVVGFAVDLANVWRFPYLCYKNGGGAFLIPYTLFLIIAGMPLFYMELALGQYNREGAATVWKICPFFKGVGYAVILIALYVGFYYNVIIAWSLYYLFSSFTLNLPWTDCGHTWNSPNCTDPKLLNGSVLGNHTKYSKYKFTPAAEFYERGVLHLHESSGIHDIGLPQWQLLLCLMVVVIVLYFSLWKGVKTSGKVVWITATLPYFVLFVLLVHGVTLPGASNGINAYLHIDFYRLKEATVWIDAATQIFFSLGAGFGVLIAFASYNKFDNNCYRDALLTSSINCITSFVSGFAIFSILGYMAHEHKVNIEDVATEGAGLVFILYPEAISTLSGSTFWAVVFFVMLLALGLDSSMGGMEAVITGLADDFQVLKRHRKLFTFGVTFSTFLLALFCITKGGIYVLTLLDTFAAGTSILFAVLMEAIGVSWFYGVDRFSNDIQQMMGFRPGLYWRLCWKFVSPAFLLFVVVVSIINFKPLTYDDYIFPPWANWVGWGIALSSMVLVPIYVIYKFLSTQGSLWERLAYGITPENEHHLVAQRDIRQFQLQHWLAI
Structures can show the parent of a compound that is named as a salt.
endpoint.label: inhibition at 1 µM (%)
Record the value in %, omitting the unit from your answer.

I have this compound here, Cc1ccc(-c2ccc(C(CN3CCN(C)CC3)C3(O)CCCCC3)cc2)cc1 (stereo not shown) [Example 181, dihydrochloride] , and I need its recorded inhibition at 1 µM. 31

If you can, please state the reported inhibition at 1 µM value of COc1ccc(C(CN2CCNCC2)C2(O)CCCCC2)cc1-c1ccc(C(F)(F)F)cc1 (stereo not shown) [Example 253, dihydrochloride] . 19

Could you share which inhibition at 1 µM value was measured for COc1cccc(COc2ccc(C(CN3CCNCC3)C3(O)CCCCC3)cc2Cl)c1 (stereo not shown) [Example 454, dihydrochloride] ? 99

Looking for the measured inhibition at 1 µM of N#Cc1cc(C(CN2CCNCC2)C2(O)CCCCC2)ccc1OCc1ccccc1 (stereo not shown) [Example 266, dihydrochloride] , can you help? 91

* * *

Task for the reader: assign each of the following compounds its reported inhibition at 1 µM.
target: human hNET (Homo sapiens); construct: expressed in transfected cells; host or cells: MDCK-Net6 (MDCK cells, stably transfected); experiment: Norepinephrine (NE) uptake assay in MDCK-Net6 cells; format: cell-based; conditions: 1 μM test compound, [3H]NE uptake, read-out: % Inhibition @ 1 μM (hNET)
Counter-ions that a name gives are not always drawn.
Please give a number only; it is taken to be in %.

Fill in the blank: the reported inhibition at 1 µM of CC[C@H]1CN(C[C@H](c2cccc(OC(F)(F)F)c2)C2(O)CCCCC2)CCN1C [Example 351, dihydrochloride] is ____. 61

May I ask what inhibition at 1 µM has been recorded for CN1CCN(CC(c2ccc(-c3cccc(Cl)c3)cc2)C2(O)CCCCC2)CC1 (stereo not drawn) [Example 176, dihydrochloride] ? 28

Record request: inhibition at 1 µM value, item CC(C)COc1ccc(C(CN2CCNCC2)C2(O)CCCCC2)cc1OC(F)(F)F (stereo not drawn) [Example 406, dihydrochloride] 22

Entry under review: OC1(C(CN2CCNCC2)c2ccc(Oc3cccc4ccccc34)cc2)CCCCC1 (stereo not drawn) [Example 389, dihydrochloride] . Reported inhibition at 1 µM? 16

Name the reported inhibition at 1 µM value associated with the compound COc1cc(C(CN2CCN(C)CC2)C2(O)CCCCC2)ccc1OCc1ccc(C(F)(F)F)cc1 (stereo not drawn) [Example 449, dihydrochloride] 88

inhibition at 1 µM for OC1(C(CN2CCNCC2)c2ccc(CCc3ccccc3)cc2)CCCCC1 (stereo not drawn) [Example 409, dihydrochloride] ? 62

Bench note: what inhibition at 1 µM did OC1(C(CN2CCNCC2)c2ccc(OCc3ccccc3)cc2)CCCCC1 (stereo not drawn) [Example 27, dihydrochloride] show? 82

Name the recorded inhibition at 1 µM for CN1CCN(CC(c2cccc(OC(F)(F)F)c2)C2(O)CCC2)CC1 (stereo not drawn) [Example 92, dihydrochloride] . 13

For the compound CCOc1ccc(C(CN2CCNCC2)C2(O)CCCCC2)cc1OC(F)(F)F (stereo not drawn) [Example 404, dihydrochloride] , what inhibition at 1 µM is on record? 42

Item under review: CN1CCN(C[C@H](c2ccc(OCc3ccccc3)c(Cl)c2)C2(O)CCCCC2)CC1 [Example 326, dihydrochloride] . Reported inhibition at 1 µM? 99.7

State the recorded inhibition at 1 µM for this entry: OC1(C(CN2CCNCC2)c2ccc(-c3cccc(F)c3)cc2)CCCCC1 (stereo not drawn) [Example 166, dihydrochloride] 48

Which inhibition at 1 µM value belongs to COc1cc(C(CN2CCNCC2)C2(O)CCCCC2)ccc1OCc1ccccc1 (stereo not drawn) [Example 442, dihydrochloride] ? 57

Look up inhibition at 1 µM: CN1CCN(CC(c2ccc(OCCc3ccccc3)cc2)C2(O)CCCCC2)CC1 (stereo not drawn) [Example 460, dihydrochloride] 82

What inhibition at 1 µM value was documented for this compound, OC1(C(CN2CCNCC2)c2ccc(OCCc3ccc(F)cc3)cc2)CCCCC1 (stereo not drawn) [Example 462, dihydrochloride] ? 47

What value of measured inhibition at 1 µM is listed for C[C@@H]1CCC(O)(C(CN2CCNCC2)c2cccc(OC(F)(F)F)c2)C1 (stereo partly drawn) [Example 394, dihydrochloride] ? 35

Any idea what inhibition at 1 µM was measured for OC1(C(CN2CCNCC2)c2ccc(OCc3ccc(C(F)(F)F)cc3)cc2)CCCCC1 (stereo not drawn) [Example 436, dihydrochloride] ? 63

Endpoint output: inhibition at 1 µM of OC1(C(CN2CCN(CC3CCCCC3)CC2)c2cccc(Oc3ccccc3)c2)CCCCC1 (stereo not drawn) [Example 313, dihydrochloride] . Value? 57.3

Dear colleague, I am looking for the recorded inhibition at 1 µM of the following compound: COc1cccc(-c2ccc(C(CN3CCN(C)CC3)C3(O)CCCCC3)cc2)c1 (stereo not drawn) [Example 179, dihydrochloride] 27

Looking for the measured inhibition at 1 µM of COc1ccc(C(CN2CCNCC2)C2(O)CCCCC2)cc1-c1ccccc1 (stereo not drawn) [Example 254, dihydrochloride] , can you help? 29

Looking for the measured inhibition at 1 µM of CN1CCN(CC(c2ccc(OCc3ccc(Br)cc3F)cc2)C2(O)CCCCC2)CC1 (stereo not drawn) [Example 435, dihydrochloride] , can you help? 85

Look up inhibition at 1 µM for this compound: COc1cccc(COc2ccc(C(CN3CCN(C)CC3)C3(O)CCCCC3)cc2Cl)c1 (stereo not drawn) [Example 455, dihydrochloride] 99

State the recorded inhibition at 1 µM for this entry: OC1(C(CN2CCNCC2)c2cccc(-c3ccc(Cl)c(Cl)c3)c2)CCC1 (stereo not drawn) [Example 153, dihydrochloride] 2

Value lookup for inhibition at 1 µM; key = OC1(C(CN2CCN(CC3CCCCC3)CC2)c2ccc(Oc3ccccc3)cc2)CCCCC1 (stereo not drawn) [Example 309, dihydrochloride] 19.7

Could you tell me which inhibition at 1 µM is on file for Cc1ccc(COc2ccc(C(CN3CCN(C)CC3)C3(O)CCCCC3)cc2F)cc1 (stereo not drawn) [Example 418, dihydrochloride] ? 71

Value lookup for inhibition at 1 µM; key = CN1CCN(CC(c2ccc(OCc3ccccc3)c(C(F)(F)F)c2)C2(O)CCCCC2)CC1 (stereo not drawn) [Example 264, dihydrochloride] 89

Quick one: inhibition at 1 µM of OC1(C(CN2CCNCC2)c2ccc(OCc3ccc4ccccc4c3)c(Cl)c2)CCCCC1 (stereo not drawn) [Example 427, dihydrochloride] ? 33

Tell me the measured inhibition at 1 µM of OC1(C(CN2CCNCC2)c2cccc(-c3ccc(C(F)(F)F)cc3)c2)CCCCC1 (stereo not drawn) [Example 249, dihydrochloride] , please. 32
